Target: recombinant cynomolgus monkey CD3ε/δ heterodimer (cynomolgus monkey) (UniProt Q95LI5)
Sequence (Q95LI5 22-117, stated change not applied, chain 1 of 2): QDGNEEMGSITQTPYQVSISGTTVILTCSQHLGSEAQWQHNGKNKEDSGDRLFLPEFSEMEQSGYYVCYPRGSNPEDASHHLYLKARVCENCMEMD
Sequence (Q95LI8 22-105, stated change not applied, chain 2 of 2, further chain): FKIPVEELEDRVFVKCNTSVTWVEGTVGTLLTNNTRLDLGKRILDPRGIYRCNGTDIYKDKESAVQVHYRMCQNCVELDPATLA
Test: ELISA, coated CD3ε/δ
Class true (1): Absorbance (450 nm) at least 0.09. Class false (0): Absorbance (450 nm) below 0.09.

binder: E14 (antibody, human IgG1, lambda, L234A L235A, V domains shown) VH: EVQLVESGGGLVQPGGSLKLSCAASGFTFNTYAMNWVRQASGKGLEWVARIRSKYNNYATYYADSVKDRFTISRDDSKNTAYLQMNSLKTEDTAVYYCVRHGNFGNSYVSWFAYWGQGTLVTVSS VL: QAVVTQEPSLTVSPGGTVTLTCRSSTGAVTTSNYANWVQQKPGQAPRGLIYGTNKRAPWTPARFSGSLLGDKAALTLSGAQPEDEAEYYCALWYSNLWVFGGGTKLTVLG
group.label: false (0)
--
binder: H04 (antibody, human IgG1, lambda, L234A L235A, V domains shown) VH: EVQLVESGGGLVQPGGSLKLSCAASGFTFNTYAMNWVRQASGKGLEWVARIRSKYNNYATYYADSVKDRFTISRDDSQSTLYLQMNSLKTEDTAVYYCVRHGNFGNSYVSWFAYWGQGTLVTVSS VL: QAVVTQEPSLTVSPGGTVTLTCRSSTGAVTTSNYANWFQQKPGQAPRTLIGGTNKRAPWTPARFSGSLLGDKAALTLSGAQPEDEAEYYCALWYSNLWVFGGGTKLTVLG
group.label: false (0)
--
binder: G15 (antibody, human IgG1, lambda, L234A L235A, V domains shown) VH: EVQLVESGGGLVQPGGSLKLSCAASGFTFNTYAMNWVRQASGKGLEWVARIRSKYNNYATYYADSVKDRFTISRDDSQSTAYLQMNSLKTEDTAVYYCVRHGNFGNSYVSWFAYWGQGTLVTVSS VL: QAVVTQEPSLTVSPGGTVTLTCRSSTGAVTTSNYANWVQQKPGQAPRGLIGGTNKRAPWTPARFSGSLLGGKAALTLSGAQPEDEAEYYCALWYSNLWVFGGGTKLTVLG
group.label: true (1)
--
binder: D13 (antibody, human IgG1, lambda, L234A L235A, V domains shown) VH: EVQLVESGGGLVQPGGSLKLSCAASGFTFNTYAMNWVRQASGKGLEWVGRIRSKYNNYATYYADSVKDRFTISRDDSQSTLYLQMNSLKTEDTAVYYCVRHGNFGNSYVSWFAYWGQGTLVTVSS VL: QAVVTQEPSLTVSPGGTVTLTCRSSTGAVTTSNYANWVQQKPGQAPRGLIYGTNKRAPWTPARFSGSLLGGKAALTLSGAQPEDEAEYYCALWYSNLWVFGGGTKLTVLG
group.label: true (1)
